B1: scFv; the commonest letter at each place (parent)
chain 1: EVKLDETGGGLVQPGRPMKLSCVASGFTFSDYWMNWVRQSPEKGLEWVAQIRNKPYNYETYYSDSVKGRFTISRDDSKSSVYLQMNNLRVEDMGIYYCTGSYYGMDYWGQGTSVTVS
chain 2: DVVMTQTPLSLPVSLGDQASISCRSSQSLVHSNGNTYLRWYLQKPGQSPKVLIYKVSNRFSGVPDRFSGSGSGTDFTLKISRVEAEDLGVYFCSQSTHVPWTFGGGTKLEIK

Variants of: B1
Experiment: yeast surface expression (ratio to wild type); higher = more expressed
Details: format: scFv 4-4-20, heavy + light
OBSERVATION_TYPE: yeast surface expression
Number only, no unit.

Reported yeast surface expression of chain 1 W36Y : 0.923

For chain 1 T28I Y32T the variant record lists yeast surface expression as 0.869

For chain 1 F29N the variant record lists yeast surface expression as 1.04

So for chain 1 Y102E M105A , the logged yeast surface expression turned out to be 0.815

get_value(item= chain 1 Y32I M34F , readout=yeast surface expression) returns 0.871

yeast surface expression for chain 1 Y32V V37K is 0.425

Notebook: chain 1 Y102H M105P , yeast surface expression read as 0.764

Recorded result, chain 1 S30I N35P , yeast surface expression: 0.35

Recorded yeast surface expression (variant chain 1 W33M V37L ): 0.553

For chain 1 Y102E G104E the variant record lists yeast surface expression as 0.934

// yeast surface expression value for chain 1 Y32H N35E : 0.518

// recorded yeast surface expression for chain 1 W36T V37L : 0.507

Kindly note the recorded yeast surface expression for chain 1 G100M Y102V , which is 0.856

variant chain 1 S101C Y103L , yeast surface expression observed: 0.522

Reported yeast surface expression of chain 1 S101C M105Y Y107D : 0.281

Briefly, yeast surface expression measured for chain 1 S101R W108H : 0.261

Lab note: measured yeast surface expression of chain 1 G104T G109L was 0.241

Per the records, this variant ( chain 1 M105G W108N ) has yeast surface expression equal to 0.415

Quick note, yeast surface expression for chain 1 Y102K Y103L G104F landed at 0.545

Record summary for chain 1 F29I Y32E : reported yeast surface expression = 0.916

Short answer for chain 1 F29P D31I : yeast surface expression was 0.679

yeast surface expression in this record for chain 1 Y102H Y107F G109K : 0.242
